B1: PFV-Gag-NtD (amino terminal domain of Prototypic Foamy Virus Gag, residues 1-179) [Prototypic foamy virus (PFV)] / PFV Env leader peptide residues 1-20 [Prototypic foamy virus (PFV)] (parent)
chain 1: MASGSNVEEYELDVEALVVILRDRNIPRNPLHGEVIGLRLTEGWWGQIERFQMVRLILQDDDNEPLQRPRYEVIQRAVNPHTMFMISGPLAELQLAFQDLDLPEGPLRFGPLANGHYVQGDPYSSSYRPVTMAETAQMTRDELEDVLNTQSEIEIQMINLLELYEVETRALRRQLAERS
chain 2: MAPPMTLQQWIIWKKMNKAH

- Variants of: B1
- procedure summary: sedimentation velocity analytical ultracentrifugation
- test context: with PFV Env leader peptide residues 1-20 [Prototypic foamy virus (PFV)]; 75 µM equimolar mixtures of Gag-NtDs with Env(1-20); read off a plot
parameter measured: Ka

chain 1 N29Q
1.4 10^5 M^-1
chain 1 L21S
0.29 10^5 M^-1
chain 1 V14S V18S
0.18 10^5 M^-1
chain 1 V14S
0.51 10^5 M^-1
chain 1 L21N
0.3 10^5 M^-1

// switching to the query variant
The variant listed as chain 1 L17S has a reported Ka of 0.71 10^5 M^-1

Each recorded value in this set is attributed to paper PMC3649970.
